Measured pKi of individual entries
Target: human organic cation/carnitine transporter (SLC22A5, OCTN2) (Homo sapiens, UniProt O76082)
Sequence (O76082 1-557): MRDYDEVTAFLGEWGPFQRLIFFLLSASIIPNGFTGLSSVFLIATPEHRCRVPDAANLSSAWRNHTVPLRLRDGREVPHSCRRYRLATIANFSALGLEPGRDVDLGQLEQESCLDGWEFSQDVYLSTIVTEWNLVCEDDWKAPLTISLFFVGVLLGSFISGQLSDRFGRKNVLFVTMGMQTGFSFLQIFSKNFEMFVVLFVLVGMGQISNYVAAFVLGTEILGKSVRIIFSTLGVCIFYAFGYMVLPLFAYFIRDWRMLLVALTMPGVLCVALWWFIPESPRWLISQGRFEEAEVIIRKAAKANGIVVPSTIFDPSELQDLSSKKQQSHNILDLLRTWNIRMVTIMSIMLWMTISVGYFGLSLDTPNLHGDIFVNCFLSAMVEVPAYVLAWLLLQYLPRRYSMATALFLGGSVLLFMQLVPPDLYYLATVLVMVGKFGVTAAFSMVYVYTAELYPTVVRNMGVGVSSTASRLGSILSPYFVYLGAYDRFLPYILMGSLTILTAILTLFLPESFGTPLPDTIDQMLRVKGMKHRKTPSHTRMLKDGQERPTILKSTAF
Assay: OCTN2 cis-inhibition of L-carnitine uptake in OCTN2-MDCK cells
Format: cell-based
Details: Reference Ki, from the comprehensive inhibition profile
Counter-ions that a name gives are not always drawn.
Notebook: values listed as pKi are -log10 of the concentration (mol/L).

{"compound": "C[N+](C)(C)C[C@@H](O)CC(=O)[O-] [D-carnitine]", "recorded result": 4.91}

Quote pKi reported for COc1cccc2c1C(=O)c1c(O)c3c(c(O)c1C2=O)C[C@@](O)(C(C)=O)C[C@@H]3O[C@H]1C[C@H](N)[C@H](O)[C@H](C)O1 [Daunorubicin hydrochloride, daunorubicin hydrochloride] please. 3.30

Identify measured pKi corresponding to CC[C@]1(O)C[C@H]2CN(CCc3c([nH]c4ccccc34)[C@@](C(=O)OC)(c3cc4c(cc3OC)N(C=O)[C@H]3[C@@](O)(C(=O)OC)[C@H](OC(C)=O)[C@]5(CC)C=CCN6CC[C@]43[C@@H]65)C2)C1 [Vincristine sulfate] 4.80

###

Target: human apical sodium-dependent transporter (SLC10A2, ASBT) (Homo sapiens)
Assay: ASBT cis-inhibition of taurocholate uptake in ASBT-MDCK cells
Settings: Ki, inhibitor concentrations 0, 25 μM (Table 2); mean±S.E.
Counter-ions that a name gives are not always drawn.
measured quantity: pKi
Scale note: pKi = -log10(concentration in M).

Here is how some compounds turned out for pKi.
{"compound": "CC(C)(C#N)c1cc(Cn2cncn2)cc(C(C)(C)C#N)c1", "recorded result": 3.82}
{"compound": "N=C(N)c1ccc(OCCCCCOc2ccc(C(=N)N)cc2)cc1 [Pentamidine Isethionate, pentamidine isethionate]", "recorded result": 3.87}
{"compound": "CC(C)c1nc(N(C)S(C)(=O)=O)nc(-c2ccc(F)cc2)c1/C=C/[C@@H](O)C[C@@H](O)CC(=O)O", "recorded result": 3.83}
{"compound": "CCCCOc1cc(C(=O)NCCN(CC)CC)c2ccccc2n1 [Dibucaine hydrochloride, dibucaine hydrochloride]", "recorded result": 3.85}

Answer with reported pKi of COc1ccc([C@@H]2Sc3ccccc3N(CCN(C)C)C(=O)[C@@H]2OC(C)=O)cc1 [Diltiazem hydrochloride, diltiazem hydrochloride] 4.06

###

Biological target: human apical sodium-dependent transporter (SLC10A2, ASBT) (Homo sapiens)
Experiment: ASBT cis-inhibition of taurocholate uptake in ASBT-MDCK cells
Details: Ki, inhibitor concentration range 0-1000 μM; mean±S.E.
Where a name gives a salt, the structure may show the parent alone.
Note to self: use label 1 only for Ki readings below 100 µM; a reading exactly at 100 µM still gets label 0.

{"compound": "CCCCNc1cc(C(=O)O)cc(S(N)(=O)=O)c1Oc1ccccc1 [Bumetanide, bumetanide]", "class name": "label 0"}
{"compound": "NS(=O)(=O)c1cc2c(cc1C(F)(F)F)NC(Cc1ccccc1)NS2(=O)=O (centres unmarked) [Bendroflumethiazide, bendroflumethiazide]", "class name": "label 0"}
{"compound": "Cc1c(OCC(F)(F)F)ccnc1C[S+]([O-])c1nc2ccccc2[nH]1 (centres unmarked)", "class name": "label 0"}

Ki strictly < 100 µM for this compound? `CN1CCN(CC/C=C2/c3ccccc3Sc3ccc(S(=O)(=O)N(C)C)cc32)CC1` label 0

Say whether its Ki is strictly beneath 100 µM. Entry: N=C(N)c1ccc(OCCCCCOc2ccc(C(=N)N)cc2)cc1 [Pentamidine Isethionate, pentamidine isethionate] label 0

Regarding COc1ccc([C@@H]2Sc3ccccc3N(CCN(C)C)C(=O)[C@@H]2OC(C)=O)cc1 [Diltiazem hydrochloride, diltiazem hydrochloride] , kindly confirm whether its Ki is beneath 100 µM. label 0

Identify whether the compound CC(C)n1c(/C=C/C(O)CC(O)CC(=O)O)c(-c2ccc(F)cc2)c2ccccc21 (centres unmarked) records Ki below 100 µM. label 1

I'd appreciate it if you could check whether Clc1ccc(C(Cn2ccnc2)OCc2ccsc2Cl)c(Cl)c1 (centres unmarked) has Ki smaller than 100 µM. label 1

###

The compounds listed here are annotated with their Ki.
Target: human organic cation/carnitine transporter (SLC22A5, OCTN2) (Homo sapiens, UniProt O76082)
Test: OCTN2 cis-inhibition of L-carnitine uptake in OCTN2-MDCK cells
Format: cell-based
Details: Ki, inhibitor concentration range 0-100 μM
Where a name gives a salt, the structure may show the parent alone.
Express it in µM; write the number only.

Example entries and their recorded answers appear below.
{"compound": "CC[C@]1(O)C[C@H]2CN(CCc3c([nH]c4ccccc34)[C@@](C(=O)OC)(c3cc4c(cc3OC)N(C=O)[C@H]3[C@@](O)(C(=O)OC)[C@H](OC(C)=O)[C@]5(CC)C=CCN6CC[C@]43[C@@H]65)C2)C1 [Vincristine sulfate]", "Ki [µM]": 15.7}
{"compound": "C[N+](C)(C)C[C@@H](O)CC(=O)[O-]", "Ki [µM]": 12.1}

Hello, please tell me recorded Ki for this one: COc1cccc2c1C(=O)c1c(O)c3c(c(O)c1C2=O)C[C@@](O)(C(C)=O)C[C@@H]3O[C@H]1C[C@H](N)[C@H](O)[C@H](C)O1 [Daunorubicin hydrochloride, daunorubicin hydrochloride] 424

###

Target: human apical sodium-dependent transporter (SLC10A2, ASBT) (Homo sapiens)
Test: ASBT cis-inhibition of taurocholate uptake in ASBT-MDCK cells
Details: Ki, inhibitor concentration range 0-25 μM; mean±S.E.
measured quantity: log10 of Ki (log10 of the value in µM)
In plain terms, each number is the log10 of measured Ki in µM.

Solved cases below.
{"molecule": "Clc1ccc(C(Cn2ccnc2)OCc2ccsc2Cl)c(Cl)c1 (stereo not drawn)", "log10 of Ki": 1.51}
{"molecule": "CC(C)OC(=O)CCC/C=C\\C[C@@H]1[C@@H](CC[C@@H](O)CCc2ccccc2)[C@H](O)C[C@@H]1O", "log10 of Ki": 1.15}
{"molecule": "CC(C)n1c(/C=C/C(O)CC(O)CC(=O)O)c(-c2ccc(F)cc2)c2ccccc21 (stereo not drawn)", "log10 of Ki": 1.39}
{"molecule": "COc1ccc2c(c1)c(CC(=O)O)c(C)n2C(=O)c1ccc(Cl)cc1", "log10 of Ki": 1.73}
{"molecule": "CCCCNc1cc(C(=O)O)cc(S(N)(=O)=O)c1Oc1ccccc1 [Bumetanide, bumetanide]", "log10 of Ki": 2.32}
{"molecule": "NS(=O)(=O)c1cc2c(cc1C(F)(F)F)NC(Cc1ccccc1)NS2(=O)=O (stereo not drawn) [Bendroflumethiazide, bendroflumethiazide]", "log10 of Ki": 2.22}
{"molecule": "Cc1c(OCC(F)(F)F)ccnc1C[S+]([O-])c1nc2ccccc2[nH]1 (stereo not drawn)", "log10 of Ki": 1.61}
{"molecule": "COC(=O)C1=C(C)NC(C)=C(C(=O)OC(C)C)C1c1cccc2nonc12 (stereo not drawn)", "log10 of Ki": 1.78}

Query molecule follows.
Give the reported value of log10 of Ki for this record: `O=C(O)C[C@H](O)C[C@H](O)/C=C/c1c(C2CC2)nc2ccccc2c1-c1ccc(F)cc1` 1.73

###

This section presents compounds with their documented inhibition at 1000 µM values.
Target: human apical sodium-dependent transporter (SLC10A2, ASBT) (Homo sapiens, UniProt Q12908)
Sequence (Q12908 whole entry): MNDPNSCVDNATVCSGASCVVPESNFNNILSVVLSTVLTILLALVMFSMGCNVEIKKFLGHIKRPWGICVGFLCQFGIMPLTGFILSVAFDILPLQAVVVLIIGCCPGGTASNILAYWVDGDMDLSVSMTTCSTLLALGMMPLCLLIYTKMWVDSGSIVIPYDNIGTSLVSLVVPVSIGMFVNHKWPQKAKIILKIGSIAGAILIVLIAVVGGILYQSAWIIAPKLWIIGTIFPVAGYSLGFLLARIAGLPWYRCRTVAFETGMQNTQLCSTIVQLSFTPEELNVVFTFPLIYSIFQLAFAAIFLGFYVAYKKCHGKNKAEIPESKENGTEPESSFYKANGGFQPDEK
Test: ASBT cis-inhibition of taurocholate uptake in ASBT-MDCK cells
Details: read-out: percent taurocholate inhibited at the highest inhibitor concentration
Where a name gives a salt, the structure may show the parent alone.
# output: bare number, implied unit %

Sample answers from the record:
{"compound": "CC(C(=O)O)c1cccc(C(=O)c2ccccc2)c1 (stereo not shown)", "inhibition at 1000 µM / %": 64.7}
{"compound": "CCCCOc1cc(C(=O)NCCN(CC)CC)c2ccccc2n1 [Dibucaine hydrochloride, dibucaine hydrochloride]", "inhibition at 1000 µM / %": 86.7}
{"compound": "CN1CCCCC1CCN1c2ccccc2Sc2ccc([S+](C)[O-])cc21 (stereo not shown) [Mesoridazine besylate]", "inhibition at 1000 µM / %": 94}

# next compound below
Look up inhibition at 1000 µM of COc1ccc([C@@H]2Sc3ccccc3N(CCN(C)C)C(=O)[C@@H]2OC(C)=O)cc1 [Diltiazem hydrochloride, diltiazem hydrochloride] and report it. 66.1
